Kindly supply the reported kon values for the records listed here.
target desc: T1, LILRB2 (UniProt Q8N423 22-460, limits assumed)
T1 construct: Panning used recombinantly expressed LILRB2-His; also called Leukocyte Immunoglobulin-like Receptor subfamily B member 2; LILRB2-His
T1 sequence (Q8N423 22-460 limits assumed): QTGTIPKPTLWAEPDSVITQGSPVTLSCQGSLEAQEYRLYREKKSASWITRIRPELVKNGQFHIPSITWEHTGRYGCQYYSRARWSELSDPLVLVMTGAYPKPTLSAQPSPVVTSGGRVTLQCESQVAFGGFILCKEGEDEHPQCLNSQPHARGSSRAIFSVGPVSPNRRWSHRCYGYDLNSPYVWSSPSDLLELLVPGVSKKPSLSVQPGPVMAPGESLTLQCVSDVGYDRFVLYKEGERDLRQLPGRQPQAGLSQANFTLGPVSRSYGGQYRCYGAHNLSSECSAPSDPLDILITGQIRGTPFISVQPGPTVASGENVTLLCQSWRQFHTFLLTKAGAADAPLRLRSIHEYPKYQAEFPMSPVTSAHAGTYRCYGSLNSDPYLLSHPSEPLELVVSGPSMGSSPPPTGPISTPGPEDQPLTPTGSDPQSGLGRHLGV
protocol notes: BLI, Octet Red96
Write it as a number; the unit M⁻¹ s⁻¹ goes unstated.

## Input For the binder NeuB2-60 (antibody, V domains shown, also called Ab60; 60-HC/60-LC) VH: QVQLQESGPGLVKPSGTLSLTCAVSGGSITSSNWWSWVRQPPGKGLEWIGDISHSGSTNYNPSLKGRVTMSVDRSKNQFFLKLSSVTAADTAMYYCARAFHGMDVWGQGTTVTVSS VL: QSVLTQPPSVSEAPRQRVTISCSGSSSNIANNAVNWYQQLPGKAPKLLIYYDDLLASGVSDRFSGSRSGTSAALAISGLQSEDEADYYCATWDDDLNGPIFGGGTKVTVL , give its measured kon value.
## Output 212000

## Input Look up and state reported kon for NeuB2-55 (antibody, V domains shown, also called Ab55; 55-HC/55-LC) VH: EVQLVQSGAEVKKPGSSVKVSCKASGGTFSSYAISWVRQAPGQGLEWMGGIIPIFGTANYAQKFQGRVTITADESTSTAYMELSSLRSEDTAVYYCARGVDQVDYWGQGTLVTVSS VL: QAVVTQPASVSGSPGQSITISCTGTSSDVGGYNYVSWYQQHPGKAPKLMIYDVSNRPSGVSNRFSGSKSGNTASLTISGLQAEDEADYYCSSYTSSSTPYVFGTGTKVTVL
## Output 129000

## Input Give me measured kon, please, for this binder: NeuB2-93 (antibody, V domains shown, also called Ab93; 93-HC/93-LC) VH: QVQLMQSGAEVKKPGSSVKVSCKASGGRFSSNVMSWVRQAPGQGLEWMGGIIPIFGTPKYAQKFQGRVTITADKSTSTAYMELSSLRSEDTAVYYCASGSTPFDAFDIWGQGTMVTVSS VL: QPVLTQPASVSGSPGQSITISCTGTSSDVGGYNYVSWYQQHPGKAPKLMIYEVSNRPSGVSNRFSGSKSGNTASLTISGLQAEDEADYYCSSYTSSSTPWVFGGGTKVTVL
## Output 123000

## Input Note down kon recorded for NeuB2-29 (antibody, V domains shown, also called Ab29; NewuB2-29) VH: QVQLVETGGGVVQPGRSLRLSCAASGFTFSDYAMHWVRQAPGKGLEWVTLISYDGSQKYYADSVKGRFTISRDDSKNTVDLQMNSLKAEDTAVYYCAKFPSLNDNVGFDVWGQGTMVTVSS VL: QSVLTQPPSVSGAPRERVTISCSGSTSNIENNAVNWYQQLPGKAPKLLIYYDDLVPSGVSDRFSGSKSGTSASLAISGLQSGDEAYYYCAVWDDSLNGPVFGGGTKVTVL
## Output 168000

## Input Entry NeuB2-40 (antibody, V domains shown, also called Ab40; 40-HC/40-LC) VH: QVQLVQSGAEVKKPGASVKVSCKASGYTFTNYGISWVRQAPGQGLEWMGWISGDAGDTKFAQKFQGRVTMTTDTSTTTTYMELRSLRSDDTAVYYCARDGEYIPMFRGFDNYYGLDVWGQGTTVTVSS VL: QPVLTQPPSVSEAPRQRVTISCSGSSSNIGKNAVNWYQQFPGKAPKLLIYYDDLLPSGVSDRFSGSRSGTSASLAISGLQSEDEADYYCAAWDDRLKGYVFGTGTQLTVL needs its kon filled in; supply it.
## Output 245000
